- target or system: T1, UNK ZnF1-3 (human, UniProt Q9C0B0 31-174)
- T1 sequence: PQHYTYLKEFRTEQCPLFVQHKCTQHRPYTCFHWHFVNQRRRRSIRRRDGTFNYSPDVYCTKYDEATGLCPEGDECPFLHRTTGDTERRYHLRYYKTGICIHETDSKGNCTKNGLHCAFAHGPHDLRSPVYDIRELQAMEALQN
- protocol summary: nsRBNS (natural sequence RNA bind-n-seq); RBNS binding buffer (assumed for nsRBNS): 25 mM Tris pH 7.5, 150 mM KCl, 3 mM MgCl2, 0.01% Triton X-100, 500 ug/ml BSA, 20 U/ml SUPERase-In, 4 C; UNK is unkempt and MSI1 is Musashi-1; names of the RNAs are library labels; protein concentration not given here; high values mean tight binding
Over roughly 24,000 sequences, “enrichment r” has its median near 0.99; the highest 2% begin near 3.7. The full list was thinned out, with the highest values kept by preference.
Recorded binding signal, one value per entry.
quantity measured: binding signal (enrichment R)

{"binder": "chr2:153237265:153237266:-_ENSMUSG00000061411_ENSMUST00000109784|mus_mus|mus_mus_mus_hu_False|78_78 (ssRNA) RNA: GGGAGUUCUACAGUCCGACGAUCAAAAAAAAAAAAAAAAAAGUGUCCUUGUGCCCAAAGUCUCAGAUGCUUGGAGUGUGGCUAGAAACAGCUCUUUUGGAUCCCACCUCUUUCAAAAACAAAAUGUACCAACUGGUGAGGCAGCAACAGAGGAUUGAGCAUCA", "units of measure": "enrichment R", "quantitative readout": 5.71}
{"binder": "14336767_14358337_2061_CDS_ENSG00000038382_ENST00000344204|human|control|control (ssRNA) RNA: GGGAGUUCUACAGUCCGACGAUCAUACACGUCGUCCAGCAGCUCCUUCUGCAGCUCCUCCAGCCACGUCCACAGCUCUUUCACAUGGGUGUGAAAGGACACUGACAUGUCCAGUAGGAUCUUUCGCUGCUCAACACGCCGAACCAACAGAGGAUUGAGCAUCA", "units of measure": "enrichment R", "quantitative readout": 0.394}
{"binder": "chr9:91931296:91931297:+_ENSG00000123975_ENST00000314355|hu_hu|hu_hu_hu_mus_True|48_108 (ssRNA) RNA: GGGAGUUCUACAGUCCGACGAUCAGAUUGACGAUCCCCAGCUGCACUUCAUUUUUGUUGUUCUUUUGGAAGAGGUCGUCUAAAGAGAAGAAUAUGUGGUUCUGGCUCAUGAAUCAUGUAAUGAACCCAUCCUAGACUCUGUUGCAACAGAGGAUUGAGCAUCA", "units of measure": "enrichment R", "quantitative readout": 0.894}
